- Tested on: PfAP2-I AP2 domain 3 (GST-tagged)
- EXPERIMENT_SUMMARY: gcPBM binding intensity (ln(normalized median fluorescence intensity)); higher = stronger DNA binding
In all, about 25,000 sequences were measured (“ln(normalized median fluorescence intensity)”: median about 7.9, highest 2% from about 11 on). The sample as a whole holds a higher share of the highest values than the screen did.
# gcPBM binding intensity (ln) listing for each entry below
MEASURED_ATTRIBUTE: gcPBM binding intensity (ln)

POLYMER_SEQUENCE: AGAAACCTTGTTAGTTAGCATATATATATATATATA [CACACA_negctrl_site372]
OBSERVED_VALUE: 9.46

POLYMER_SEQUENCE: TACTTTTCTTAAAGATGTACGTTTTAAAAATAAAAT [XGTACX_site14]
OBSERVED_VALUE: 7.81

POLYMER_SEQUENCE: GAAATAAAAAGAAATGCATGTAATTTTTTTTTTTTT [TGCATGCA_site928]
OBSERVED_VALUE: 7.61

POLYMER_SEQUENCE: ACTACATAATACTATTCACACATTTTTTTTTTTTTT [CACACA_site5794]
OBSERVED_VALUE: 7.83

POLYMER_SEQUENCE: AAAAAAGACCATGTTAGTACATAAGATTTTTTTCAT [XGTACX_site4298]
OBSERVED_VALUE: 7.53

Entry source: the supplement of paper PMC11417369
